Molecular target: Voltage-dependent T-type calcium channel subunit alpha-1H (Homo sapiens, UniProt O95180)
Sequence (O95180 whole entry): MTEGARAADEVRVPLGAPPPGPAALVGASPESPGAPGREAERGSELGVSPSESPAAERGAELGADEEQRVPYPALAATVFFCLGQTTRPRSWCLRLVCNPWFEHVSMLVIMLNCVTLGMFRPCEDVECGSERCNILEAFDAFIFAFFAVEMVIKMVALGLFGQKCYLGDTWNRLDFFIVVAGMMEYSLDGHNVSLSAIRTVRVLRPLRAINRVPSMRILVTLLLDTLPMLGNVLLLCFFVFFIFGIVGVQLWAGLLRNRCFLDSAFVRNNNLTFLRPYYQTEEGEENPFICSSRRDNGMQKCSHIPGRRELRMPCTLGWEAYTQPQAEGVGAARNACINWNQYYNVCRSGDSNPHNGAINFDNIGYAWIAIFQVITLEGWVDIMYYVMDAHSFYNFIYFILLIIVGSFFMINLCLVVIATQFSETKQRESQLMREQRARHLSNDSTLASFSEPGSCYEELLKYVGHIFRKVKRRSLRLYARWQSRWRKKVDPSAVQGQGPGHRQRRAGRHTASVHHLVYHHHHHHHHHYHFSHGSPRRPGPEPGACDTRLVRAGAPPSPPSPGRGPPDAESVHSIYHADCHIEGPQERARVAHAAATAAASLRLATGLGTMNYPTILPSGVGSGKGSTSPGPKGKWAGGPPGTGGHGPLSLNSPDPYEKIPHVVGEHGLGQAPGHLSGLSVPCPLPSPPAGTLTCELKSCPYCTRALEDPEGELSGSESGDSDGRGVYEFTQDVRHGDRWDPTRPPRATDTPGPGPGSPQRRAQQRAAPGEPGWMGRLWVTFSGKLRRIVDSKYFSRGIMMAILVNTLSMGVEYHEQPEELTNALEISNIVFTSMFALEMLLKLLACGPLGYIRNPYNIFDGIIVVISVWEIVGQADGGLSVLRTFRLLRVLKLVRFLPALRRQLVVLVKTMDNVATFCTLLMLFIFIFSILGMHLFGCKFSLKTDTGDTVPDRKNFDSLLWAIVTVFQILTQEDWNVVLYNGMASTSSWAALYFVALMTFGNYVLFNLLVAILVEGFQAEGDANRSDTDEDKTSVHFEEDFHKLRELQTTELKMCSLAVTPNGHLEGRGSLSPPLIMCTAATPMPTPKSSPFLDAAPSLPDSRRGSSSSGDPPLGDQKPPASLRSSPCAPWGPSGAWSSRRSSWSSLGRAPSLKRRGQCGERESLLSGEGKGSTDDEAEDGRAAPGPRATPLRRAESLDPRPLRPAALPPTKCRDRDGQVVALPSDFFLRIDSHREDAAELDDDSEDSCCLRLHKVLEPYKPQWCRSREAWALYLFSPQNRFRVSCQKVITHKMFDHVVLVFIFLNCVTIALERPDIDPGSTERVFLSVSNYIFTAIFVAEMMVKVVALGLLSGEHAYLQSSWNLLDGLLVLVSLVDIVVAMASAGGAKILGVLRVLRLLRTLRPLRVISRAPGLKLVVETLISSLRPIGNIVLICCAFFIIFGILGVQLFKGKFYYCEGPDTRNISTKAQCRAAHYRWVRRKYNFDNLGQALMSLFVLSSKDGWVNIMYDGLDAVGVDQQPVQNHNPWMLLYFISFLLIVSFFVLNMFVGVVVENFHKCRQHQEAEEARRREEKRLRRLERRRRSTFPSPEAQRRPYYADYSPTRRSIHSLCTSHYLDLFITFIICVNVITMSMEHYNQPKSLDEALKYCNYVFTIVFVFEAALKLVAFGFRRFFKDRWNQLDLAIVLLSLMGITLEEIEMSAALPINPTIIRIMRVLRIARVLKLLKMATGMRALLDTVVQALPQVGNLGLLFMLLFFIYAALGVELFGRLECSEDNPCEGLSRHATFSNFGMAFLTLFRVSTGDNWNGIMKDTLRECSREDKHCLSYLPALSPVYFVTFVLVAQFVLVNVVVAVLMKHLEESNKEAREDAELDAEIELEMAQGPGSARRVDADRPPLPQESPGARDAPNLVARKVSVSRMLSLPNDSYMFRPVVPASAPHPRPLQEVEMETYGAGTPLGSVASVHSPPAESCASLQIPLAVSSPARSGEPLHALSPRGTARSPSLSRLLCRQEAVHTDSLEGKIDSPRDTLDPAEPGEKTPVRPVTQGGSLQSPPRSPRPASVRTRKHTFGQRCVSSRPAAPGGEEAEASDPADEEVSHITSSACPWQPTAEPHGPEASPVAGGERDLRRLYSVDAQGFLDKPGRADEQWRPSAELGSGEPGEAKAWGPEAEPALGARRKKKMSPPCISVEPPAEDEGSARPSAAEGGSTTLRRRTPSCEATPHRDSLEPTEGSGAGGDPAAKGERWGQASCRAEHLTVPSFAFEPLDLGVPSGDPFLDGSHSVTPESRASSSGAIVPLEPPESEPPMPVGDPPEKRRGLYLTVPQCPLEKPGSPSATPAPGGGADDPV
Assay: Antagonist activity at human alpha1H T-type calcium channel expressed in HEK293 cells by patch clamp technique
Catalogue of IC50 readings, one per entry.
measurementKind: IC50 (nM)

[[record]]
compound = "CC1=C(C(=O)OC(C)C)C(c2cccc(Cl)c2)N(CCCN(C)C(=O)c2ccc(Oc3ccccc3)cc2)C(=O)N1 (single isomer, unassigned; enantiomer 1)"
measurementkind = "IC50"
readoutnumber = 180

[[record]]
compound = "CC(C)OC(=O)CN(c1cccc(Cl)c1)S(=O)(=O)c1cccc(NC(=O)CCc2ccccc2)c1"
measurementkind = "IC50"
readoutnumber = 540

[[record]]
compound = "CN(CC(=O)Nc1cccc(S(=O)(=O)N(Cc2ccccc2)c2cccc(Cl)c2)c1)C(=O)OCc1ccccc1"
measurementkind = "IC50"
readoutnumber = 110

[[record]]
compound = "CC(C)NC(=O)CN(c1cccc(Cl)c1)S(=O)(=O)c1cccc(NC(=O)CN(C)C(=O)OCc2ccccc2)c1"
measurementkind = "IC50"
readoutnumber = 1700

[[record]]
compound = "CC(C)OC(=O)CN(c1cccc(Cl)c1)S(=O)(=O)c1cccc(NC(=O)CN(C)C(=O)OCc2ccccc2)c1"
measurementkind = "IC50"
readoutnumber = 240

[[record]]
compound = "CC1=C(C(=O)OC(C)C)C(c2cccc(Cl)c2)N(CCCN(C)C(=O)c2ccc(Oc3ccccc3)cc2)C(=O)N1 (single isomer, unassigned; enantiomer 2)"
measurementkind = "IC50"
readoutnumber = 650

[[record]]
compound = "CC(C)CCCN(c1cccc(Cl)c1)S(=O)(=O)c1cccc(NC(=O)CN(C)C(=O)OCc2ccccc2)c1"
measurementkind = "IC50"
readoutnumber = 180

[[record]]
compound = "CC1=C(C(=O)OC(C)C)C(c2cccc(Cl)c2)N(CCCN(C)C(=O)c2ccc(Oc3ccccc3)cc2)C(=O)N1 (centres undefined)"
measurementkind = "IC50"
readoutnumber = 250

[[record]]
compound = "CC(C)OC(=O)CN(c1cccc(Cl)c1)S(=O)(=O)c1cccc(NC(=O)CCNC(=O)OCc2ccccc2)c1"
measurementkind = "IC50"
readoutnumber = 420


====

Assay: Ratio of IC50 for L-type calcium channel in rat aorta method to IC50 for human T-type calcium channel in patch clamp method
Format: tissue-based
measurementKind: Ratio IC50

[[record]]
mol = "CC(C)OC(=O)CN(c1cccc(Cl)c1)S(=O)(=O)c1cccc(NC(=O)CCNC(=O)OCc2ccccc2)c1"
measurementkind = "Ratio IC50"
cmp = "="
readoutnumber = 41

[[record]]
mol = "CC(C)CCCN(c1cccc(Cl)c1)S(=O)(=O)c1cccc(NC(=O)CN(C)C(=O)OCc2ccccc2)c1"
measurementkind = "Ratio IC50"
cmp = "="
readoutnumber = 67

[[record]]
mol = "CC(C)OC(=O)CN(c1cccc(Cl)c1)S(=O)(=O)c1cccc(NC(=O)CCc2ccccc2)c1"
measurementkind = "Ratio IC50"
cmp = ">"
readoutnumber = 55

[[record]]
mol = "CC(C)NC(=O)CN(c1cccc(Cl)c1)S(=O)(=O)c1cccc(NC(=O)CN(C)C(=O)OCc2ccccc2)c1"
measurementkind = "Ratio IC50"
cmp = ">"
readoutnumber = 17

[[record]]
mol = "CN(CC(=O)Nc1cccc(S(=O)(=O)N(Cc2ccccc2)c2cccc(Cl)c2)c1)C(=O)OCc1ccccc1"
measurementkind = "Ratio IC50"
cmp = "="
readoutnumber = 109

[[record]]
mol = "CC(C)OC(=O)CN(c1cccc(Cl)c1)S(=O)(=O)c1cccc(NC(=O)CN(C)C(=O)OCc2ccccc2)c1"
measurementkind = "Ratio IC50"
cmp = "="
readoutnumber = 62


All figures here come from ChEMBL document CHEMBL1143108.
